STUDY SYSTEM: VAV1 (Homo sapiens, UniProt P15498+Q96SW2)
Construct: A heterozygous VAV1 C-terminal HiBiT knock-in pool was generated at Monte Rosa Therapeutics from a clonal Jurkat cell; endogenous in cells; host or cells: Jurkat clone stably expressing LgBiT, homozygous GSPT1-G575N; heterozygous VAV1-HiBiT knock-in pool
TEST DESCRIPTION: VAV1 degradation activity, VAV1-HiBiT knock-in Jurkat luminescence assay (Example A, Table 1)
Type: cell-based
ASSAY CONDITIONS: VAV1-HiBiT knock-in Jurkat cells, luminescence read at 6 and 24 hours; read-out: VAV1 DC50
Method: Cells were plated at 10,000 cells per well using Multiflo (BioTek) or Multi Drop Combi (Thermo Fisher) in 384-well white solid bottom plates (Corning, 3570BC) in 25 ul volume in RPMI 1640 media (Thermo Fischer, 22400105) containing 10% FBS (Corning, 35-075-CV), 1% Penicillin/Streptomycin (ThermoFisher Scientific, 15140-122), and 1% Endurazine (Nano-Glo Endurazine Live Cell Substrate (Promega, N2571)). Cells were incubated for ˜16 hours at 37° C., 5% CO2. […]
With a cut-off of 20 nM, any DC50 strictly below it is called label 1; any DC50 meeting it or above is called label 0.

> print(dat)
                                    compound  group.label
 1  O=C1CCC(c2cccc(-c3cnc(-n4ccccc4=O)c(F)c3)c2Cl)C(=O)N1 (stereo not drawn) [Compound 427]      label 0
 2  CC1(C)CCCC(=O)N1Cc1ccc(-c2cccc(C3CCC(=O)NC3=O)c2Cl)cc1 (stereo not drawn) [Compound 292]      label 1
 3  O=C1CCC(c2cccc(-c3ccc(N4CCCN(CC(F)F)C4=O)cc3)c2Cl)C(=O)N1 (stereo not drawn) [Compound 429]      label 1
 4  O=C1CCC(c2cccc(-c3ccc(N4CCC(F)(F)CC4=O)cc3)c2Cl)C(=O)N1 (stereo not drawn) [Compound 464]      label 1
 5  CC1CCCC(=O)N1Cc1ccc(-c2cccc(C3CCC(=O)NC3=O)c2Cl)cc1 (stereo not drawn) [Compound 295]      label 1
 6  CN1CC(=O)N(Cc2ccc(-c3cccc(C4CCC(=O)NC4=O)c3Cl)cc2)c2cnccc21 (stereo not drawn) [Compound 256]      label 0
 7  O=C1CCC(c2cccc(-c3ccc(N4C(=O)OCC45CC5)cc3)c2Cl)C(=O)N1 (stereo not drawn) [Compound 426]      label 1
 8  O=C1CCC(c2cccc(-c3ccc(N4CCN5CCCC5C4=O)cc3)c2Cl)C(=O)N1 (stereo not drawn) [Compound 308]      label 0
 9  O=C1CCC(c2cccc(-c3ccc(N4CCCCC4=O)c(F)c3)c2Cl)C(=O)N1 (stereo not drawn) [Compound 461]      label 1
10  O=C1CCC(c2cccc(-c3ccc(C(=O)N4CCCCC4)cc3)c2Cl)C(=O)N1 (stereo not drawn) [Compound 223]      label 1
11  O=C1CCC(c2cccc(-c3ccc(-n4c(F)cccc4=O)cc3)c2Cl)C(=O)N1 (stereo not drawn) [Compound 242]      label 0
12  CC(Oc1ccc(-c2cccc(C3CCC(=O)NC3=O)c2Cl)cc1)c1ccn(C)n1 (stereo not drawn) [Compound 173]      label 0
13  O=C1CCC(c2cccc(-c3ccc(-n4cc(F)ccc4=O)cc3)c2Cl)C(=O)N1 (stereo not drawn) [Compound 246]      label 1
14  COc1cnc(Cc2ccc(-c3cccc(C4CCC(=O)NC4=O)c3Cl)cc2)nc1 (stereo not drawn) [Compound 422]      label 1
15  CN1CCCN(Cc2ccc(-c3cccc(C4CCC(=O)NC4=O)c3Cl)cc2F)C1=O (stereo not drawn) [Compound 425]      label 1
16  COc1ccc(-c2cccc(C3CCC(=O)NC3=O)c2Cl)cc1OC(F)F (stereo not drawn) [Compound 108]      label 0
17  O=C1CCC(c2cccc(-c3ccc(CN4CCn5nccc5C4=O)cc3)c2Cl)C(=O)N1 (stereo not drawn) [Compound 275]      label 0
18  COc1ccc(-c2ccc(F)c(C3CCC(=O)NC3=O)c2F)cc1C (stereo not drawn) [Compound 148]      label 0
19  O=C1CCC(c2cccc(-c3ccc(-n4cccc(F)c4=O)cc3)c2Cl)C(=O)N1 (stereo not drawn) [Compound 218]      label 1
20  O=C1CCC(c2cccc(-c3ccc(OCC4CCCO4)cc3)c2Cl)C(=O)N1 (stereo not drawn) [Compound 119]      label 0
21  O=C1CCC(c2cccc(-c3ccc4c(cnn4Cc4ncccn4)c3)c2Cl)C(=O)N1 (stereo not drawn) [Compound 396]      label 1
22  CC1Oc2ccncc2N(Cc2ccc(-c3cccc(C4CCC(=O)NC4=O)c3Cl)cc2)C1=O (stereo not drawn) [Compound 254]      label 1
23  O=C1CCC(c2cccc(-c3ccc(N4C(=O)OCCC45CC5)cc3)c2Cl)C(=O)N1 (stereo not drawn) [Compound 345]      label 1
24  Cn1ccc(COc2ccc(-c3ccc(F)c(C4CCC(=O)NC4=O)c3Cl)cc2)n1 (stereo not drawn) [Compound 144]      label 0
25  C[C@H]1COCC(=O)N1Cc1ccc(-c2cccc(C3CCC(=O)NC3=O)c2Cl)cc1 (stereo partly drawn) [Compound 265]      label 0
26  Cn1ccc(COc2ccc(-c3cccc(C4CCC(=O)NC4=O)c3)cc2)n1 (stereo not drawn) [Compound 151]      label 0
27  O=C1CCC(c2cccc(-c3ccc(Cc4cncnc4)cc3)c2Cl)C(=O)N1 (stereo not drawn) [Compound 376]      label 1
28  CN1Cc2cccc(-c3ccc(-c4cccc(C5CCC(=O)NC5=O)c4Cl)cc3)c2C1=O (stereo not drawn) [Compound 439]      label 1
29  O=C1CCC(c2cccc(-c3ccc(Cc4cocn4)cc3)c2Cl)C(=O)N1 (stereo not drawn) [Compound 442]      label 0
30  CC(C)(c1ccc(-c2cccc(C3CCC(=O)NC3=O)c2Cl)cc1)n1ccccc1=O (stereo not drawn) [Compound 231]      label 1
31  COCc1ccn(C)c(=O)c1-c1ccc(-c2cccc(C3CCC(=O)NC3=O)c2Cl)cc1 (stereo not drawn) [Compound 411]      label 1
32  CN1CCN(c2ccc(-c3cccc(C4CCC(=O)NC4=O)c3Cl)cc2)C1=O (stereo not drawn) [Compound 387]      label 0
33  C#Cc1ccc(C2CCC(=O)NC2=O)c(Cl)c1-c1ccc(OCc2ccn(C)n2)cc1 (stereo not drawn) [Compound 172]      label 0
